# Tested on: MDA-MB-468 breast
# assay_overview: NCI-60 one-dose screen, 48 h
# measurement_setup: 10 µM unless noted
Compounds without any hit were thinned out: in the full panel of roughly 83,000, 20% have a hit. Active and inactive are the calls of the source. The calls were made as follows: active = growth percent below 10; inactive = the rest.
Classes to choose from: active, inactive

Examples from the recorded data:
O=C(NCCCNc1cc(-c2cn(-c3ccccc3)nc2-c2cccc(O)c2)ccn1)c1ccc(F)cc1; active
Cc1c2ncccc2nc2[nH]c3ccc(OCCN(C)C)cc3c12; active
CNc1cc(C(=O)O)nc(NC)n1; inactive
COC1=CC(=O)c2nc(Cl)ccc2C1=O; active
O=C(Nc1ccc(-n2ccc3c(NC(=O)c4ccccc4)nccc32)cc1)c1ccc(N2CCOCC2)c(C(F)(F)F)c1; inactive
COc1ccc(/C=C(\C#N)c2ccc([N+](=O)[O-])cc2)c2ccccc12; inactive
C=CCN=C(N)SCCCCCCSC(N)=NCC=C; inactive
Clc1ccc(-c2c3ccc(=[N+]4CCCCC4)cc-3oc3cc(N4CCCCC4)ccc23)cc1; active
O=Nc1c(-c2c(O)[nH]c3ncccc23)[nH]c2ccccc12; inactive
COC(=O)C(Br)(C(=O)OC)C(Br)C(Br)C(Br)c1ccccc1 (configuration not stated); active

In: In this assay, the call recorded for CCOC(=O)c1cc(C(=O)c2cc(OC)cc(OC)c2)n2ncccc12 was what?
Out: inactive

In: Hi team, can someone confirm the assay call for Nc1c(C(=O)Nc2cccc3ccccc23)sc2nc3c(cc12)C(=O)CCC3 ?
Out: inactive

In: Record lookup: outcome of this test for CCCCCCCC/C=C/CCCCCCCC1=NC(C)(C)CN1c1ccccc1 ?
Out: inactive

In: Hi, sorry to bother you, what did the test record for O=[N+]([O-])c1c(O)c(Cl)cc(Cl)c1Cl ?
Out: inactive

In: Which outcome was assigned to COc1ccc2[nH]cc(-c3nonc3-c3c[nH]c4ccc(Br)cc34)c2c1 in this test?
Out: inactive

###

# System: MDA-MB-468 breast
# assay_overview: NCI-60 one-dose screen, 48 h (100 = growth as untreated, 0 = no growth, -100 = all killed)
# measurement_setup: 10 µM unless noted
Compounds without any hit were thinned out: in the full panel of roughly 83,000, 20% have a hit.
Please map values of growth to classes as shown: low-valued: < 20%; mid-valued: ≥ 20% and < 90%; high-valued: ≥ 90%

O=C(NCCNC(c1ccccc1)C(NCCNC(=O)c1ccccc1)c1ccccc1)c1ccccc1 (stereo unspecified); mid-valued
Oc1ccc(Cl)cc1/C=N\NC(=S)N/N=C/c1cc(Cl)ccc1O; low-valued
Cc1ccc2nc(-c3ccc(C(=O)NNC(=S)Nc4ccccc4)cc3)[nH]c2c1; high-valued
NC(=O)c1cccc(-n2ccc3cc(NC(=O)Nc4ccc(Cl)c(C(F)(F)F)c4)ccc32)n1; mid-valued
O=C1c2ccccc2C(=O)N1OCc1ccccc1; high-valued
CC(=O)N1N=C(CCC(=O)c2nc3ccc([N+](=O)[O-])cc3[nH]2)OC1c1ccc(O)cc1 (stereo unspecified); high-valued

In: Looking at CS(=O)CCCCCN=C=S (stereo unspecified) , which class would you pick?
Out: low-valued

In: Field: class (growth) — entry: CC(C)(C)CC(C)(C)Nc1c(-c2ccc(-c3ccccc3)cc2)nc2cnccn12
Out: high-valued

In: Sort COc1cccc(C(=O)N(c2ccc(F)c(F)c2)C(C(=O)NC(C)(C)C)c2cc3c(C)cc(C)cc3nc2Cl)c1 (stereo unspecified) into one of the categories.
Out: mid-valued

###

# System: MDA-MB-468 breast
# assay_overview: NCI-60 one-dose screen, 48 h
# measurement_setup: 10 µM unless noted
Compounds without any hit were thinned out: in the full panel of roughly 83,000, 20% have a hit. Calls of active or inactive are those of the source. The calls were made as follows: active = growth percent below 10; inactive = the rest.
Choose one outcome from this list and give only that: label 1 (active), label 0 (inactive)

Example results:
O=C1C=CC(=CC=C2C=CN(CCCCCCCCCCCO)C=C2)C=C1; label 1
CCOC(=O)c1c(NC(=O)c2ccc(C(C)C)cc2)sc2c(CN(C)C)c(O)ccc12; label 1
COC(=O)[C@@]1(C)CC[C@]2(C)CC[C@]3(C)C(=CC(=O)[C@@H]4[C@@]5(C)Cc6c(n(CC#CCN7CCN(C)CC7)c7ccccc67)C(C)(C)[C@@H]5CC[C@]43C)[C@@H]2C1; label 0
CC(=O)OCC1OC(OC2C(COC(C)=O)OC(OCCC[S-])C(OC(C)=O)C2OC(C)=O)C(OC(C)=O)C(OC(C)=O)C1OC(C)=O.[Au+].c1ccc(CN2[CH-]N(Cc3ccccc3)C(c3ccccc3)=C2c2ccccc2)cc1 (stereo not drawn); label 0
O=C1Nc2cc(-c3cccc(O)c3)ccc2/C1=C/c1ccc[nH]1; label 1

In: Can you look up the reported call for CCOC(=O)c1ccc2n1CCCc1cnc(NC(C)=O)nc1-2 for me?
Out: label 0

In: Hi, sorry to bother you, what did the test record for CCCNC(=O)Oc1ccc(/C(=C(\C)c2ccccc2)c2ccc(OCCCN(C)C)cc2)cc1 ?
Out: label 0

In: // param item: CC1Cc2c(Cl)ncnc2N(C)c2ccc(O)cc21 (stereo not drawn) ; yields the recorded call
Out: label 1

###

# Test system: MDA-MB-468 breast
# assay_overview: NCI-60 one-dose screen, 48 h (100 = growth as untreated, 0 = no growth, -100 = all killed)
# measurement_setup: 10 µM unless noted
The panel holds about 83,000 compounds, 20% with a hit somewhere; the sample as a whole holds those more often.
Catalogue of molecules with associated growth
# unit: % | format: bare number

CCOC(=O)c1ccccc1OC(=O)NNc1ccccc1; 83.2
O=C1OCC2=C1C(c1cccc(C(F)(F)F)c1)c1cc3c(cc1N2CCO)OCO3 (stereo not given); -5.36
ClCC(Cl)C1CCC(Cl)C(Cl)C1 (stereo not given); 114
N#Cc1ccccc1-c1ccc(CN2C(=O)S/C(=C\c3ccc(Br)cc3)C2=O)cc1; 112
COc1ccc2c(c1)OC13Oc4cc(OC)ccc4C=C1CCCC3=C2; 56.3

In: Need growth, item O=C(CNc1nnc(-c2ccc(Cl)cc2)o1)Nc1ccc(-c2nc3ccccc3s2)cc1
Out: -10.2

In: If you can, please state the reported growth value of CCN1CCN(Cc2cn(-c3ccc(S(N)(=O)=O)cc3)nn2)CC1 .
Out: 99.7

In: Please look up its growth: CC[C@@H]1C(=O)N(C)c2cnc(Nc3ccc(C(=O)NC4CCC(N5CCN(CC6CC6)CC5)CC4)cc3OC)nc2N1C(C)C (stereo not given in full)
Out: -54.1

In: # query: growth of entry COc1cc2c(cc1OC)C(Sc1ccc(SC)cc1)c1c(nc(N)c(C#N)c1N)O2 (stereo not given)
Out: -47.1

In: Which value of growth has been reported for Fc1cccc(CNc2c3ccccc3nc3ccccc23)c1 in the records?
Out: 0.607

In: May I ask what growth has been recorded for COc1cccc(C2C3=C(COC3=O)N(CCO)c3cc4c(cc32)OCCO4)c1 (stereo not given) ?
Out: -52.9

In: Recorded growth for COc1cc(/C=N/NC(=O)c2cnn3c2NC(c2ccccc2)C3)cc(OC)c1OC (stereo not given) , please?
Out: 62.8

In: Suppose we examine the molecule CCCCC/C=C\C/C=C/CCCCCCCCNC(=O)Nc1ccc([N+](=O)[O-])cc1 ; what growth value has been reported?
Out: 84.5

In: Query (molecule): Cc1ccc(-c2cc(-c3cccc(Nc4ccnc5cc(Cl)ccc45)c3)nc3nc(N)[nH]c(=O)c23)cc1 ; field requested: growth
Out: 28

In: Could you tell me which growth is on file for Nc1n[nH]c2cccc(C#Cc3cccc(C(=O)Nc4cc(C(F)(F)F)cc(C(F)(F)F)c4)c3)c12 ?
Out: 87.5

In: Can you look up the measured growth of O=c1c2ccccc2nc(COc2ccccc2)n1NS(=O)(=O)c1ccc(Cl)cc1 for me?
Out: 40.4

In: Quick one: growth for Cc1[nH]n(C(N)=S)c(=O)c1N=Nc1ccc(F)c(Cl)c1 ?
Out: 154

In: Which growth reading was recorded for the molecule CC(C)(C)[C@H](OCc1cn([C@H]2C[C@@H](O)[C@@H](CO)O2)c(=O)[nH]c1=O)c1ccc(C#Cc2ccccc2)cc1[N+](=O)[O-] ?
Out: 68.2

In: Please give the measured growth for this molecule: COc1cc(Nc2nc(NCCN)nc3cc[nH]c(=O)c23)cc(OC)c1
Out: 3.37

In: // query growth value for entry COc1cc2oc(-c3ccc(NC(=O)c4ccccc4)cc3)cc(=O)c2c(OC)c1OC
Out: 96.5

###

Reported values of growth for individual entries
# Test system: MDA-MB-468 breast
# assay_overview: NCI-60 one-dose screen, 48 h (100 = growth as untreated, 0 = no growth, -100 = all killed)
# measurement_setup: 10 µM unless noted
The panel holds about 83,000 compounds, 20% with a hit somewhere; the sample as a whole holds those more often.
# unit: % | format: bare number

Here are 8 compounds together with their reported answers.
O=C(CN1C(=O)NC2NC(=O)NC21)N/N=C/c1ccccc1[N+](=O)[O-] (centres undefined); 98.5
C/C(=C(\c1ccc(OCCN2CCCCCC2)cc1)c1ccc(OC(=O)Cc2ccccc2)cc1)c1ccc(Cl)cc1; -4.03
Clc1ccc(C2=NN(c3ccccc3)[C@H](c3cn(-c4ccccc4)nc3-c3ccccc3)C2)cc1; 109
C[C@@]1(N2C(=O)OC[C@@H]2c2ccccc2)C(=O)N([C@H](CC(=O)N2CCC(N3CCCCC3)CC2)C(=O)NCc2cccc(C(F)(F)F)c2)[C@@H]1/C=C/c1ccccc1; 23.7
O=C(O)C(C(=O)O)c1cccc2ccccc12; 101
C#CCn1c(-c2cc(OC)c(OC)cc2Br)nc(-c2ccccc2)c1-c1ccccc1; 5.05
CCOC(=O)CNC(=O)Nc1ccc(Oc2ccc(NC(=O)NCC(=O)OCC)cc2)cc1; 99.5
Cc1sc2nc3[nH]/c(=C\c4ccc(Cl)cc4)c(=O)n3c(=O)c2c1C; 101

Please examine the following record next.
In: GET /values?readout=growth&item= Cc1ccc(NC(=O)CSc2nc3ccccc3c(=O)n2CCc2ccccc2)c(C(=O)O)c1
Out: 110

Value source: PubChem BioAssay (NCI)
